# reported IC50; entries follow
target: JAK1 (Homo sapiens (Human), UniProt P23458); test: Analysis of JAK1 activity inhibition ability (ADP-Glo Kinase Assay); format: biochemical; details: JAK1 enzyme, ADP-Glo luminescence, ATP 250 uM, IRS-itide substrate, 30° C. 40 minutes; read-out: IC50
Sequence (P23458 whole entry): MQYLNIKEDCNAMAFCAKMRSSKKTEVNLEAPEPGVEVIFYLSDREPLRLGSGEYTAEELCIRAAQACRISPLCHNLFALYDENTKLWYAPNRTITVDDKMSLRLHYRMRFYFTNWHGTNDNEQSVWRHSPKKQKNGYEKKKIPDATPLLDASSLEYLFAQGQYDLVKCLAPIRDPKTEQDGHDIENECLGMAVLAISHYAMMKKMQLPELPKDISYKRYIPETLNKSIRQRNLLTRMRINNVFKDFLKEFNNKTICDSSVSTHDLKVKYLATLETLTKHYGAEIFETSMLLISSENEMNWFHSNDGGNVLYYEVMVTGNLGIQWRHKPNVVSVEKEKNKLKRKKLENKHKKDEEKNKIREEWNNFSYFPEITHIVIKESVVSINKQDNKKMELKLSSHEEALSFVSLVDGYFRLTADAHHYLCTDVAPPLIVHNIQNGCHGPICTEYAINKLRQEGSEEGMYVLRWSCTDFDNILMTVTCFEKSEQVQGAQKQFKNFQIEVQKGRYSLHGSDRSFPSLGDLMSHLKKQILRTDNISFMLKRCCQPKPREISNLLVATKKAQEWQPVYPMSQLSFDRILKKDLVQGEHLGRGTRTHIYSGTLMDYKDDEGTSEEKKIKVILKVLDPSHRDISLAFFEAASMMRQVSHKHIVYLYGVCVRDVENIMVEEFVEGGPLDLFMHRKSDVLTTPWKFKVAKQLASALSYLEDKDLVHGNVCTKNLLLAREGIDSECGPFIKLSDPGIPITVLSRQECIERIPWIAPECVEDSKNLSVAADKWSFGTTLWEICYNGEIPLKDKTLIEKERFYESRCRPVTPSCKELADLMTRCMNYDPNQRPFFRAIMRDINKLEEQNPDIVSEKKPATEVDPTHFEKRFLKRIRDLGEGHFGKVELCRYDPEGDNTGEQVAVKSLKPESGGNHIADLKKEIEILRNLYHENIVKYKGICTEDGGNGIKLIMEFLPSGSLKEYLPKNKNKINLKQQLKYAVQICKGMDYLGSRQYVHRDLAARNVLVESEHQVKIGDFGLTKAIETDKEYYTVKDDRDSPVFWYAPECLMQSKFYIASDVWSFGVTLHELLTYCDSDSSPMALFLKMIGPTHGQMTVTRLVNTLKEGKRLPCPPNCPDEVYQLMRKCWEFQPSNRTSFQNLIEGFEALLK
readoutLabel: IC50

[[record]]
compound = "CCCCS(=O)(=O)Nc1ccc(-c2cc(NC(=O)C3CC3)nc3[nH]ccc23)cc1CC"
readoutlabel = "IC50"
result = "20 to 200 nM"

[[record]]
compound = "O=C(Nc1cc(-c2ccc(NS(=O)(=O)N3CCCC3)c(F)c2)c2cc[nH]c2n1)C1CC1"
readoutlabel = "IC50"
result = "< 20 nM"

[[record]]
compound = "CCCCNC(=S)N1CCC(c2cc(NC(=O)C3CC3)nc3[nH]ccc23)CC1"
readoutlabel = "IC50"
result = "> 200 nM"

[[record]]
compound = "N#CC1CN(C(=O)Cc2ccc(-c3cc(NC(=O)C4CC4)nc4[nH]ccc34)cc2)C1"
readoutlabel = "IC50"
result = "20 to 200 nM"

[[record]]
compound = "C=CCS(=O)(=O)Nc1ccc(-c2cc(NC(=O)C3CC3)nc3[nH]ccc23)cc1F"
readoutlabel = "IC50"
result = "< 20 nM"

[[record]]
compound = "C[C@@H]1CN(C(=O)CC#N)CC=C1c1cc(NC(=O)C2CC2)nc2[nH]ccc12"
readoutlabel = "IC50"
result = "< 20 nM"

[[record]]
compound = "CC(C)C1CC(c2cc(NC(=O)C3CC3)nc3[nH]ccc23)=CCN1C(=O)CC#N (stereo not shown)"
readoutlabel = "IC50"
result = "< 20 nM"

[[record]]
compound = "N#Cc1ccc(COc2ccc(-c3nc(NC(=O)C4CC4)nc4[nH]cnc34)cc2)cn1"
readoutlabel = "IC50"
result = "> 200 nM"

[[record]]
compound = "O=C(Nc1cc(-c2ccc(CNC(=O)N3CCS(=O)(=O)CC3)cc2)c2cc[nH]c2n1)C1CC1"
readoutlabel = "IC50"
result = "20 to 200 nM"

[[record]]
compound = "O=C(NCC(F)(F)F)C1CC=C(c2cc(NC(=O)C3CC3)nc3[nH]ccc23)CC1 (stereo not shown)"
readoutlabel = "IC50"
result = "20 to 200 nM"

[[record]]
compound = "O=C(Nc1cc(-c2ccc(NS(=O)(=O)C3CCC3)cc2)c2cc[nH]c2n1)C1CC1"
readoutlabel = "IC50"
result = "< 20 nM"

[[record]]
compound = "C[C@@H]1CN(C(=O)c2ccnc(F)c2F)CC=C1c1cc(NC(=O)C2CC2)nc2[nH]ccc12"
readoutlabel = "IC50"
result = "< 20 nM"

[[record]]
compound = "O=C(Nc1cc(-c2ccc(CC(=O)N3CCOCC3)cc2)c2cc[nH]c2n1)C1CC1"
readoutlabel = "IC50"
result = "20 to 200 nM"

[[record]]
compound = "N#CCCC(=O)N1CCN(c2cc(NC(=O)C3CC3)nc3[nH]ccc23)CC1"
readoutlabel = "IC50"
result = "> 200 nM"

[[record]]
compound = "N#CC1(CS(=O)(=O)Nc2ccc(-c3cc(NC(=O)C4CC4)nc4[nH]ccc34)cc2)CC1"
readoutlabel = "IC50"
result = "< 20 nM"

[[record]]
compound = "O=C(Nc1nc(-c2ccc(CNc3cccc(F)c3)cc2)c2nc[nH]c2n1)C1CC1"
readoutlabel = "IC50"
result = "> 200 nM"

